System: NCI-60 cell lines
Assay type: cell-based, human
Measure name: Cell Line with which the peptide (and its tripeptide motif) is associated

| Substance | Experimental result |
| --- | --- |
| LVRVSGR | HL-60-Leukemia |
| WVGSSKF | A549-Lung |
| RRSSKQA | A549-Lung |
| QMQGRAV | H226-Lung |
| FHVAGGS | SR Leukemia |
| HSGVSHG | RPMI-8226-Leukemia |
| DAGSDRR | EKVX-Lung |
| NLADGSV | H322-Lung |
| GRVHLMP | Hop-92-Lung |
| GLLSLXL | CCRF-CEM Leukemia |
| SSGSVDS | H322-Lung |
| LRYNLRS | RPMI-8226-Leukemia |
| QVAGRER | CCRF-CEM Leukemia |
| VHRVSGG | RPMI-8226-Leukemia |
| LRVRYAV | H322-Lung |
| LELGRLL | HL-60-Leukemia |
| GSARGML | SR Leukemia |
| AEGGSGH | A549-Lung |
| AAVWAAD | HL-60-Leukemia |
| DIALVSP | A549-Lung |
| PLRVDNL | H23-Lung |
| VRGSVRA | H23-Lung |
| AKLGSVY | H226-Lung |
| RGSRLPA | EKVX-Lung |
| LAAGGEL | RPMI-8226-Leukemia |
| EHPAGGM | A549-Lung |
| GLGGWVA | H226-Lung |
| LRSRLGF | SR Leukemia |
| SKYRLRS | RPMI-8226-Leukemia |
| ASLPPRA | EKVX-Lung |
| GAGLSTS | H322-Lung |
| SGHGVSA | H23-Lung |
| SRLSYRS | A549-Lung |
| DLLRYLA | H322-Lung |
| SGGLVLT | Hop-92-Lung |
| LMGRASG | SR Leukemia |
| GRVPGFE | H322-Lung |
| ARVGVSP | H322-Lung |
| CHARGVT | Molt-4-Leukemia |
| EVGGGLT | CCRF-CEM Leukemia |
| LGGLSPH | H322-Lung |
| WFGAVGL | Molt-4-Leukemia |
| HAAHGLV | Hop-92-Lung |
| SRAVIDM | CCRF-CEM Leukemia |

----------
Tested on: NCI-60 cell lines
Format: cell-based, human
Measure name: Cell Line (NCI-60 cell line the peptide is associated with)

| Substance | Experimental result |
| --- | --- |
| SLRSDGA | HCT-15 Colon |
| GRGLRTD | SF-295 CNS |
| YRGSMVG | COLO-205-Colon |
| RWAGLVA | SF-295 CNS |
| RDGRAVR | KM-12C Colon |
| AARGLEA | COLO-205-Colon |
| RLLSAFG | HCT-15 Colon |
| PQGRGVK | SNB-75 CNS |
| EHYRLRS | HT-29 Colon |
| AGDSRLS | HCT-15 Colon |
| RWRSGRV | HT-29 Colon |
| SPGVSGR | SW620-Colon |
| SAGGWCA | LOX-IMVI Melanoma |
| RGSWAGV | HT-29 Colon |
| QWYSLRS | LOX-IMVI Melanoma |
| LRAVEFL | MALME-3M Melanoma |
| SNHTASL | SF-295 CNS |
| RLSALTD | HT-29 Colon |
| LWGLGWL | HCC-2998-Colon |
| PGAVPGA | HT-29 Colon |
| GWSASLG | HCT-116 Colon |
| TRASRRG | SNB-75 CNS |
| WGSVAGI | SNB-75 CNS |
| RVGSVQW | KM-12C Colon |
| RRGSLMF | SW620-Colon |
| RDGVRVG | LOX-IMVI Melanoma |
| SRSCGGL | LOX-IMVI Melanoma |
| GGSSLDA | HCT-116 Colon |
| VTDGAGQ | SF-268 CNS |
| SRASGHG | HT-29 Colon |
| IGLRGEN | SNB-75 CNS |
| GLVTAPL | COLO-205-Colon |
| VMWVARG | KM-12C Colon |
| FRALGGL | SNB-75 CNS |
| QLPGLLR | SNB-75 CNS |
| TVGSGCL | HCT-116 Colon |
| GSMHRVS | SF-295 CNS |
| WFKGPSV | SF-268 CNS |
| SHCGPSN | SF-295 CNS |
| DWVCRAS | HT-29 Colon |
| ADGRLRY | KM-12C Colon |
| FRAGVSH | HCT-116 Colon |
| ARGVAEY | SF-295 CNS |
| VLRSIPS | SF-295 CNS |
| AAVTVVR | KM-12C Colon |
| LGLVSTT | HT-29 Colon |
| GRLRLRV | SF-295 CNS |
| PGGLVPG | HT-29 Colon |
| WRVRSSG | HCT-15 Colon |
| VRGGLTG | HT-29 Colon |
| WGVAGLG | HT-29 Colon |
| GVAGGAT | SW620-Colon |
| ARRGLGL | SNB-75 CNS |
| EMGSSRG | HT-29 Colon |
| GRLVWGL | HCT-116 Colon |
| DGPSGCS | SNB-75 CNS |
| WVSGRLG | COLO-205-Colon |
| GEVGLGV | HT-29 Colon |
| LAIRGLG | SW620-Colon |
| LLRSHGV | SF-295 CNS |
| RSTLGPS | HT-29 Colon |
| DGGSLVV | LOX-IMVI Melanoma |
| GLGGGGS | SF-268 CNS |
| DSGLVGG | LOX-IMVI Melanoma |
| RARTGGS | SNB-75 CNS |
| VSGDGGS | SNB-75 CNS |
| GVRYLRT | HCT-116 Colon |
| WLLSARL | HCC-2998-Colon |
| LKLLSVP | HT-29 Colon |
| GYSRASD | HT-29 Colon |
| ADWGVLE | SNB-75 CNS |
| LRVPGGP | KM-12C Colon |
| GLRLGVT | HT-29 Colon |
| IGVRGAV | MALME-3M Melanoma |
| FVGSRGV | LOX-IMVI Melanoma |
| LTAAVMV | SNB-75 CNS |
| LGLRGGA | SF-268 CNS |
| VSSTARG | MALME-3M Melanoma |
| GHYRASV | HT-29 Colon |
| AGLALTV | MALME-3M Melanoma |
| YLLRALG | SF-268 CNS |
| RVARGDR | KM-12C Colon |
| LRASLLW | HCC-2998-Colon |
| CAGRARR | SNB-75 CNS |
| LLRPGTV | HCC-2998-Colon |
| RAGSRVQ | SF-295 CNS |
| AASTRSL | MALME-3M Melanoma |
| LSERRGV | SF-295 CNS |
| RGVKLGD | SW620-Colon |
| RGSVGPS | SW620-Colon |
| SDRGLVV | HCT-15 Colon |
| YSGSSDF | COLO-205-Colon |
| LCDAGPS | HCT-116 Colon |
| RRDAGRM | SF-295 CNS |
